Tested on: Egri leanyka vine variety
Assay info: Berry yield and sugar content of vine, Egri leanyka (Example 33)
Type: in vivo
Test parameters: 3 x 2 kg/ha, control 151.15
Measured metric: Berry yield (q/ha)
Answers are plain numbers, in q/ha.

Sample answers from the record:
Problem: Kindly state the measured Berry yield obtained for O=P(O)(O)CCCl [Ethrel, 2-chloroethylphosphonic acid] with Egri leanyka vine variety.
Solution: 164.61

Problem: Hi! What's the reported Berry yield for C[N+](C)(C)CCCl.[Cl-] [CCC, 2-chloroethyltrimethyl-ammonium chloride] on Egri leanyka vine variety?
Solution: 144.61

Problem: Recorded Berry yield for N=C(N)N.N=C(N)N.Oc1nnc(O)c2ccccc12 with Egri leanyka vine variety, please?
Solution: 124.23

Problem: So what Berry yield did O=C(O)c1ccccc1C(=O)Nc1ccccc1 [Nevirol, N-phenyl-phthalaiminic acid] get with Egri leanyka vine variety?
Solution: 169.22

New cases:
Problem: Lookup: Berry yield / Egri leanyka vine variety / CCC[n+]1c[nH]c2ccccc21.[Br-] [N--(n-Propyl)-benzimidazolium bromide, N-(n-propyl)-benzimidazolium bromide]
Solution: 176.92

----------
Test system: leaves of Pinto bean
Assay info: Stimulation of photolytic activity, HTO, Pinto bean (Example 23)
Test parameters: 18 hours; zeatin 20, kinetin/benzyladenine 30, others 200 ppm
Measured metric: Stimulation (%)
Give bare numbers, in %.

Problem: Form field: reported Stimulation of CCC[n+]1c[nH]c2ccccc21.[Br-] [N--(n-Propyl)-benzimidazolium bromide, N-(n-propyl)-benzimidazolium bromide]
Solution: 84

Problem: Reported Stimulation, compound c1ccc(CNc2ncnc3[nH]cnc23)cc1 : ____
Solution: 125

Problem: Give its Stimulation value. Item: N=C(N)N.N=C(N)N.Oc1nnc(O)c2ccccc12
Solution: 79

Quick one: give me Stimulation for each item below, same order please.
1. c1coc(CNc2ncnc3[nH]cnc23)c1
2. C/C(=C\CNc1ncnc2[nH]cnc12)CO

Solution:
1. 82
2. 108

Source of measurements: patent US4620871A
